system: Tyrosine-protein kinase Mer (Homo sapiens) (UniProt Q12866);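 further: reported value is a mean inhibition of MER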
Sequence (whole entry): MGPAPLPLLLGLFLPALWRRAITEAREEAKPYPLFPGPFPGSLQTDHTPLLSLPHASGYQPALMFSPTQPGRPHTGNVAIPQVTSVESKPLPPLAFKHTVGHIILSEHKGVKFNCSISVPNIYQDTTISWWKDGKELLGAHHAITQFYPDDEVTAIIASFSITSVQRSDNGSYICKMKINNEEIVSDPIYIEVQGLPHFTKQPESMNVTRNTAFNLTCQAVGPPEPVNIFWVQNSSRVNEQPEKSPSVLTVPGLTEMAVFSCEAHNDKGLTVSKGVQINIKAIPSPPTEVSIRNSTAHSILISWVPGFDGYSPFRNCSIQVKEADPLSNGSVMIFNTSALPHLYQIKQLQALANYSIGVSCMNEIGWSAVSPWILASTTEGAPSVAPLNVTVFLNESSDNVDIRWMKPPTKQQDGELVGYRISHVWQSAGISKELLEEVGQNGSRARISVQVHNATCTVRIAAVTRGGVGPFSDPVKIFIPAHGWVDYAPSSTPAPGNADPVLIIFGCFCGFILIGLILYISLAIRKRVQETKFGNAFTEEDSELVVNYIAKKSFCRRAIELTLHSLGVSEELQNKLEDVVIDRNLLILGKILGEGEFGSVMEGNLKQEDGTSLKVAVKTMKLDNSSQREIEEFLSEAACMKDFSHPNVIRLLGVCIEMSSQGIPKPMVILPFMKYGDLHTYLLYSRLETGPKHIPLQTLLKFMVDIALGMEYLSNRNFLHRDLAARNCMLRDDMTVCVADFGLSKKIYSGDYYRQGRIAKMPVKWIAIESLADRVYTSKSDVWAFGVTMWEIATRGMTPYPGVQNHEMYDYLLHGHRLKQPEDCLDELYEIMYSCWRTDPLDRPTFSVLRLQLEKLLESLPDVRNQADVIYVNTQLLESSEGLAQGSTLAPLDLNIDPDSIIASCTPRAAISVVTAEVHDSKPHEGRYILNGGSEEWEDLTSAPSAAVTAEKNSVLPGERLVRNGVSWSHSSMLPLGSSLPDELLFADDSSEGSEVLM
condition_details: at 0.1 µM
Quick reference for inhibition among some compounds
measured_quantity: inhibition (%)

[[record]]
compound = "NC(=O)c1ccc(Oc2nccc(-c3c(-c4ccc(F)cc4)ncn3C3CCNCC3)n2)cc1"
readout_units = "%"
endpoint_result = 3.18

[[record]]
compound = "FC(F)(F)c1cccc(Nc2nccc(-c3cnn4nc(-c5ccccc5)ccc34)n2)c1"
readout_units = "%"
endpoint_result = -0.58

[[record]]
compound = "Clc1ccc(CNc2nccc(-c3cnn4ncccc34)n2)cc1"
readout_units = "%"
endpoint_result = -0.52

[[record]]
compound = "O=C(Nc1n[nH]c2cc(-c3ccccc3)ccc12)C1CC1"
readout_units = "%"
endpoint_result = 1.8

[[record]]
compound = "COc1ccc2cc(-c3c(-c4ccncc4)nc(-c4ccc([S+](C)[O-])cc4C)n3C)ccc2c1 (stereo unspecified)"
readout_units = "%"
endpoint_result = 0.82

[[record]]
compound = "CCC(=O)Nc1ccc(C)c(-c2ccc(C(=O)NCC3CC3)cc2)c1"
readout_units = "%"
endpoint_result = 2.88

[[record]]
compound = "O=C(Nc1n[nH]c2cc(-c3cc(F)ccc3F)ccc12)C1CC1"
readout_units = "%"
endpoint_result = 0.82

[[record]]
compound = "COc1cc2ncn(-c3cc(OCc4cccs4)c(C(N)=O)s3)c2cc1OC"
readout_units = "%"
endpoint_result = 3.4

[[record]]
compound = "Fc1ccc(-c2ncn(C3CCNCC3)c2-c2ccnc(Oc3ccc4c(c3)OCO4)n2)cc1"
readout_units = "%"
endpoint_result = 2.7

[[record]]
compound = "COc1cc2ncn(-c3cc(OCCc4ccccc4)c(C(N)=O)s3)c2cc1OC"
readout_units = "%"
endpoint_result = 2.54

[[record]]
compound = "Fc1ccc(-c2ncn(C3CCNCC3)c2-c2ccnc(Oc3ccc(F)c(F)c3)n2)cc1"
readout_units = "%"
endpoint_result = 1.13

[[record]]
compound = "COc1ccc(-c2ccc3c(NC(=O)C4CC4)n[nH]c3n2)cc1"
readout_units = "%"
endpoint_result = 0.16

[[record]]
compound = "O=C1Nc2ccccc2/C1=C/Nc1ccc(-n2cncn2)cc1"
readout_units = "%"
endpoint_result = 1.28

[[record]]
compound = "COc1ccc(C2=C(N3CCc4ccccc43)C(=O)NC2=O)cc1"
readout_units = "%"
endpoint_result = 1.96

[[record]]
compound = "CNC(=O)c1cncc(/C=C/c2c(C)cccc2C)c1"
readout_units = "%"
endpoint_result = -0.47

[[record]]
compound = "COc1cc(N2CCN(C(C)C)CC2)ccc1Nc1nc(Nc2ccc(F)cc2C(=O)NC[C@@H](O)CO)c2cc[nH]c2n1"
readout_units = "%"
endpoint_result = 0.94

[[record]]
compound = "CS(=O)(=O)CCNCc1cc(-c2cc3c(Nc4ccc(OCc5cccc(F)c5)c(Cl)c4)ncnc3s2)cs1"
readout_units = "%"
endpoint_result = 4.4

[[record]]
compound = "CN1CCN(CCCNc2nc3ccc(Oc4ccc(NC(=O)Nc5cc(C(F)(F)F)ccc5F)cc4)cc3[nH]2)CC1"
readout_units = "%"
endpoint_result = 2.04

[[record]]
compound = "Fc1ccc(-c2ncn(CCCN3CCOCC3)c2-c2ccncc2)cc1"
readout_units = "%"
endpoint_result = 0.24

[[record]]
compound = "NS(=O)(=O)c1ccc(N/N=C2\\C(=O)Nc3ccc(-c4cnco4)cc32)cc1"
readout_units = "%"
endpoint_result = 1.31

[[record]]
compound = "COC(=O)Nc1nc2ccc(Sc3ccc(NC(=O)Nc4cc(C(F)(F)F)ccc4F)cc3)cc2[nH]1"
readout_units = "%"
endpoint_result = -0.94

[[record]]
compound = "O=C(Nc1n[nH]c2nc(-c3ccc(O)cc3)c(Br)cc12)C1CC1"
readout_units = "%"
endpoint_result = 1.7

[[record]]
compound = "COc1ccc2cc(-c3c(-c4ccncc4)nc(-c4ccc(S(C)(=O)=O)cc4C)n3C)ccc2c1"
readout_units = "%"
endpoint_result = 2.19

[[record]]
compound = "COc1ccc2ncn(-c3cc(O[C@H](C)c4ccccc4Cl)c(C(N)=O)s3)c2c1"
readout_units = "%"
endpoint_result = 2.41

[[record]]
compound = "NCc1ccc(-n2c(-c3nonc3N)nc3cnccc32)cc1"
readout_units = "%"
endpoint_result = 1.5

[[record]]
compound = "O=C(Nc1n[nH]c2nc(-c3ccco3)ccc12)C1CC1"
readout_units = "%"
endpoint_result = 2.01

[[record]]
compound = "CN(C)c1ccc2c(c1)/C(=C/Nc1ccc(S(N)(=O)=O)cc1)C(=O)N2"
readout_units = "%"
endpoint_result = 1.88

[[record]]
compound = "Fc1ccc(-c2c(-c3ccncc3)nc3n2CCS3)cc1"
readout_units = "%"
endpoint_result = 1.44

[[record]]
compound = "COc1cc(C)c(N(C)C(=O)CN(C)C)cc1Nc1nc(Nc2cccc(F)c2C(N)=O)c2cc[nH]c2n1"
readout_units = "%"
endpoint_result = 1.74

[[record]]
compound = "CCS(=O)(=O)c1ccc(OC)c(Nc2ncc(-c3ccccc3Cl)o2)c1"
readout_units = "%"
endpoint_result = -0.83

[[record]]
compound = "CCc1nccc2c1nc(-c1nonc1N)n2CC"
readout_units = "%"
endpoint_result = -0.98

[[record]]
compound = "CCN(CC)Cc1ccc(Nc2nccc(-c3cnn4ncccc34)n2)cc1"
readout_units = "%"
endpoint_result = 2.93

[[record]]
compound = "C#Cc1cccc(Nc2ncnc3ccc(OCCCCNCCS(C)(=O)=O)cc23)c1"
readout_units = "%"
endpoint_result = 2

[[record]]
compound = "Nc1nccc(-c2c(-c3ccc(F)cc3)ncn2C2CCC(O)CC2)n1 (stereo unspecified)"
readout_units = "%"
endpoint_result = 1.22

[[record]]
compound = "c1ccc(Oc2ccc(Nc3ncc(-c4ccccc4)o3)cc2)cc1"
readout_units = "%"
endpoint_result = 0.19

[[record]]
compound = "CCc1cccc(CC)c1/C=C/c1cncc(C(=O)NC)c1"
readout_units = "%"
endpoint_result = -0.22

[[record]]
compound = "NC(=O)c1cc(-c2ccncc2)cc(-c2ccccc2)c1N"
readout_units = "%"
endpoint_result = 1.28

[[record]]
compound = "Cc1nnc(-c2ccc(C)c(-c3ccc(C(=O)NCc4ccc(Cl)cc4)cc3)c2)o1"
readout_units = "%"
endpoint_result = 2.04

[[record]]
compound = "CS(=O)(=O)CCNCc1ccc(-c2ccc3ncnc(Nc4ccc(OCc5ccccc5)c(Br)c4)c3c2)o1"
readout_units = "%"
endpoint_result = 2.91

[[record]]
compound = "C[C@@H](Oc1cc(-n2cnc3ccc(OCC4CCN(C)CC4)cc32)sc1C(N)=O)c1ccccc1Cl"
readout_units = "%"
endpoint_result = 1.86

[[record]]
compound = "COc1cccc(/C=N/Nc2ncnc3c2cnn3-c2cccc(OC)c2)c1"
readout_units = "%"
endpoint_result = 1.87

